Numbers sourced from patent US20020111274A1.

Catalogue of compounds with associated SETVI herbicidal rating
tested on: SETVI Foxtail, Green; assay: Preemergence herbicidal evaluation, SETVI; type: in vivo, Setaria viridis, (L.) Beau; set-up: scale not given here; settings: preemergence, rate 0.062 kg/ha
Quantity measured: SETVI herbicidal rating

INSERT INTO assay_data (compound, quantity_measured, value) VALUES
  ('Cc1ccc(O)cc1-n1nnc2cc(F)c(-n3c(=O)cc(C(F)(F)F)n(C)c3=O)cc21 [Example 32]', 'SETVI herbicidal rating', 0.0),
  ('COc1ccc(-n2nnc3cc(F)c(-n4c(=O)cc(C(F)(F)F)n(C)c4=O)cc32)c(C)c1 [Example 24]', 'SETVI herbicidal rating', 9.0),
  ('C#CCOC(=O)COc1ccc(C)cc1-n1nnc2cc(F)c(-n3c(=O)cc(C(F)(F)F)n(C)c3=O)cc21 [Example 40]', 'SETVI herbicidal rating', 5.0),
  ('COc1ccc(C)cc1-n1nnc2cc(F)c(-n3c(=O)cc(C(F)(F)F)n(C)c3=O)cc21 [Example 18]', 'SETVI herbicidal rating', 9.0),
  ('Cc1ccc(-n2nnc3cc(F)c(-n4c(=O)cc(C(F)(F)F)n(C)c4=O)cc32)cc1C [Example 23]', 'SETVI herbicidal rating', 9.0),
  ('Cc1cc(O)ccc1-n1nnc2cc(F)c(-n3c(=O)cc(C(F)(F)F)n(C)c3=O)cc21 [Example 33]', 'SETVI herbicidal rating', 0.0),
  ('COc1ccc(Cl)cc1-n1nnc2cc(F)c(-n3c(=O)cc(C(F)(F)F)n(C)c3=O)cc21 [Example 30]', 'SETVI herbicidal rating', 9.0),
  ('COC(=O)COc1ccc(C)c(-n2nnc3cc(F)c(-n4c(=O)cc(C(F)(F)F)n(C)c4=O)cc32)c1 [Example 38]', 'SETVI herbicidal rating', 0.0);
